Biological target: PRMT5 (Homo sapiens)
Construct: purchased Viva (custom protein)
Sequence (O14744 whole entry): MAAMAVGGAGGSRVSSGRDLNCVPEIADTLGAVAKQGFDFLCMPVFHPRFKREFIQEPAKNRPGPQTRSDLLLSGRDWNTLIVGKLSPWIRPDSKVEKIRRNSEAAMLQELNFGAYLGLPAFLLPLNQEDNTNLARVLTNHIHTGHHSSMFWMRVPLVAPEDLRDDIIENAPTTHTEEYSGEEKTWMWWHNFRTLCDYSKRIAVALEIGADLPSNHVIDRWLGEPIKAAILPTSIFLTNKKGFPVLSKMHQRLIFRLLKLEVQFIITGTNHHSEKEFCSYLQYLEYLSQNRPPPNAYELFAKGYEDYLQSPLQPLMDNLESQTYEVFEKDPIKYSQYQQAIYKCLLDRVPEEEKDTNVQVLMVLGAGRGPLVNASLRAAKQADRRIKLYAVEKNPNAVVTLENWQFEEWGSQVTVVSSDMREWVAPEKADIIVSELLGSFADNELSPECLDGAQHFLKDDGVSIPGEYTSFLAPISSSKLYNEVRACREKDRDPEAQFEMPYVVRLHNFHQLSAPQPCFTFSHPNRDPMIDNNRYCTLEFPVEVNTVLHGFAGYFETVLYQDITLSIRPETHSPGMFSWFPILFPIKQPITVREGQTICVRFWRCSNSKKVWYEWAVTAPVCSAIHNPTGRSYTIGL
Sequence (Q9BQA1 whole entry partner): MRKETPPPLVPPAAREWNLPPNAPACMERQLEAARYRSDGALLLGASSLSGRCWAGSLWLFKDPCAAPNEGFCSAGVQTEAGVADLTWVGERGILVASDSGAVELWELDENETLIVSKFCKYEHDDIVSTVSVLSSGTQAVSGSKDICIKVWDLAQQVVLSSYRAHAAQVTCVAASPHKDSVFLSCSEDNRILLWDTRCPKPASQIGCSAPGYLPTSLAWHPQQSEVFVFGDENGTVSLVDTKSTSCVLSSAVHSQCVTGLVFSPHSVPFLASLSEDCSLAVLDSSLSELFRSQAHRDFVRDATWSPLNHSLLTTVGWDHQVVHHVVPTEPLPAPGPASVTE
Test: PRMT5 biochemical IC50 assay with no cofactor
Details: PRMT5, no cofactor; read-out: No Cofactor/rel IC50
pIC50: −log10 of the molar value.
Documented pIC50 across a set of molecules

Below are worked cases with known answers.
| molecule | result |
| --- | --- |
| C[C@@H]1C[C@H](c2ccccc2)N(C(=O)C(=O)Nc2cncc(C(N)=O)c2)C[C@H]1C (racemic) | 6.30 to 7.30 |
| CCc1cc(NC(=O)C(=O)N2C[C@@H](C)CC[C@@H]2c2ccc3sc(C4CCN(C)C(=O)C4)nc3c2)cnc1N (mixture of isomers) | > 7.30 |
| Cc1ccc([C@@H]2CC[C@@H](C)CN2C(=O)C(=O)Nc2cnc(N)c(C)c2)cn1 (single isomer, unassigned) | > 7.30 |
| C[C@@H]1CC[C@@H](c2cc[nH]n2)N(C(=O)C(=O)Nc2cncc(C(N)=O)c2)C1 (single isomer, unassigned) | < 6.30 |
| CCc1cc(NC(=O)C(=O)N2C[C@@H](C)CC[C@@H]2c2ccc3[nH]cnc3c2)cnc1N (single isomer, unassigned) | > 7.30 |

Attention now turns to another entry.
Q) // map CCc1cc(NC(=O)C(=O)N2C[C@H](C)CC[C@H]2c2ccc3[nH]c(=O)ccc3c2)cnc1N (single isomer, unassigned) to recorded pIC50 (system: PRMT5 (Homo sapiens))
A) < 6.30

src = patent US11999727B2
